test: in vitro; details: mouse, liver microsomes
Description: Half life in mouse liver microsomes
MEASURED_ENDPOINT: half-life

So, CCOc1ccc(S(=O)(=O)CC)cc1-c1cn(C)c(=O)c2ccc(-c3cnn(C)c3)cc12 ? Its half-life was > 3.33 h

###

assay: in vitro; details: dog, MDCK-MDR1
Description: Permeability across apical to basolateral side in MDCK cells expressing MDR1
MEASURED_ENDPOINT: Papp A→B (×10⁻⁶ cm/s)
Your answer is read as ×10⁻⁶ cm/s, so omit the unit and give the number.

So, CCOc1ccc(S(=O)(=O)CC)cc1-c1cn(C)c(=O)c2ccc(-c3cnn(C)c3)cc12 ? Its Papp A→B was 6

###

experiment: in vivo; conditions: CD1, mouse, po, 10 mg/kg
MEASURED_ENDPOINT: AUC(0-t) at 6 h
Enter the number, and then the unit.

So, CCOc1ccc(S(=O)(=O)CC)cc1-c1cn(C)c(=O)c2ccc(-c3cnn(C)c3)cc12 ? Its AUC(0-t) at 6 h was 11400 ng·h/mL
